Reported kon values follow for various binders
Target: recombinant cohesin (CipA of Clostridium josui, BAA32429) (Clostridium josui)
Test: SPR (Biacore T-100), same format, 5 mM EGTA in running buffer
Ends that are not written are not given here.
Enter your answer as a number in M⁻¹ s⁻¹; do not include the unit.

Known results for binders:
recombinant JNK3 of which an I49N-substituted dockerin polypeptide was fused at the N-terminal (protein, not shown: large carriers; small tags and cut ends) MGLKGDVNNDGAIDALDIAALKKAILTQSTSNINLTNADMNNDGNIDANDFAQLKVKLLN ... 1.6e+06
recombinant JNK3 of which an I49V-substituted dockerin polypeptide is fused at the N-terminal (protein, not shown: large carriers; small tags and cut ends) MGLKGDVNNDGAIDALDIAALKKAILTQSTSNINLTNADMNNDGNIDAVDFAQLKVKLLN ... 1.4e+06
recombinant JNK3 of which a wild-type dockerin was fused at the N-terminal (protein, not shown: large carriers; small tags and cut ends, not fully specified (C-terminus)) MGLKGDVNNDGAIDALDIAALKKAILTQSTSNINLTNADMNNDGNIDAIDFAQLKVKLLN ... 2e+06

stdin: Query: kon; subject: recombinant JNK3 of which an I49T-substituted dockerin polypeptide is fused at the N-terminal (protein, not shown: large carriers; small tags and cut ends) MGLKGDVNNDGAIDALDIAALKKAILTQSTSNINLTNADMNNDGNIDATDFAQLKVKLLN
stdout: 1.2e+06

stdin: # repeat for recombinant JNK3 of which an L16T/I49T-substituted dockerin polypeptide is fused at the N-terminal (protein, not shown: large carriers; small tags and cut ends) MGLKGDVNNDGAIDATDIAALKKAILTQSTSNINLTNADMNNDGNIDATDFAQLKVKLLN
stdout: 250000

stdin: # repeat for recombinant JNK3 of which an I49G-substituted dockerin polypeptide is fused at the N-terminal (protein, not shown: large carriers; small tags and cut ends) MGLKGDVNNDGAIDALDIAALKKAILTQSTSNINLTNADMNNDGNIDAGDFAQLKVKLLN
stdout: 300000

stdin: # repeat for recombinant JNK3 of which an I49S-substituted dockerin polypeptide is fused at the N-terminal (protein, not shown: large carriers; small tags and cut ends) MGLKGDVNNDGAIDALDIAALKKAILTQSTSNINLTNADMNNDGNIDASDFAQLKVKLLN
stdout: 710000
